assay: growth loss of phage-infected AddAB-carrying E. coli, confirmation, counter-screen for RecBCD inhibitor project, absorbance, E. coli V3065, T4 phage (AID 651984);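 further: higher means less bacterial growth from phage killing when AddAB is blocked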; conditions: E. coli expressing H. pylori AddAB + T4 phage, OD growth; at 11.9 µM; gene 2 mutant T4, recBCD-deleted host
The other results are listed elsewhere or left out. Activity calls are given as the source filed them.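 How the source made its calls: active means mean inhibition above the solvent-only control wells' mean plus 3 SD (cut at about 22% in these data); inactive means the rest.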
Lab note: assign the record to one of y (active), n (inactive)

Reference set, count: 3
{"MOLECULE": "Oc1c(Cl)cc(Cl)c(Cl)c1Cc1c(O)c(Cl)cc(Cl)c1Cl", "ASSIGNED_LABEL": "n"}
{"MOLECULE": "C=CC1=C(C(=O)O)N2C(=O)[C@@H](NC(=O)/C(=N/OCC(=O)O)c3csc(N)n3)[C@H]2SC1", "ASSIGNED_LABEL": "y"}
{"MOLECULE": "CCN1CCN(C(=O)N[C@@H](C(=O)N[C@@H]2C(=O)N3C(C(=O)O)=C(CSc4nnnn4C)CS[C@H]23)c2ccc(O)cc2)C(=O)C1=O", "ASSIGNED_LABEL": "n"}

Hey, what did the test say about "CCN1CCN(c2nc(Nc3cc(OC)ccc3OC)nc(Nc3cc(OC)ccc3OC)n2)CC1" ?
n

Outcome? "O=C(Nc1ccc(Br)cn1)c1ccc([N+](=O)[O-])o1"
y

Hi team, can someone confirm the assay call for NC1=NC(=O)C(Cc2cccc(Cl)c2Cl)S1 (stereo not drawn) ?
n

What call does the record list for "COc1cccc(/C=N/Nc2ncc(C(F)(F)F)cc2Cl)c1O" ?
n

Which outcome did this test record for the molecule "COc1ccc(OC)c(Cc2cnc3nc(N)nc(N)c3c2C)c1" ?
y
